Data origin: patent US12012403B2

Target System: human CCR6 (Homo sapiens)
Test: Migration (chemotaxis) assay, hCCR6-transfected Ba/F3 cells toward CCL20
Particulars: hCCR6-transfected Ba/F3 cells in human serum; recombinant human CCL20 10 nM; 37° C. 45 minutes; read-out: Potency (IC50 value in the migration assay)
Examples of molecules with documented IC50 follow.

### Prompt Entry O=S(=O)(c1ccc(-c2ccc3c(c2)CNC3)cc1)N1CCC(Nc2ccc(C(F)(F)F)cn2)CC1 [Example 1.058] needs its IC50 filled in; supply it.
### Response 100 to 10000 nM

### Prompt Give IC50 for CS(=O)(=O)NCCC1CCN(c2ccc(S(=O)(=O)N3CCC(Nc4ccc(C(F)(F)F)cn4)CC3)cc2)CC1 [Example 1.127]
### Response 5 to 100 nM

### Prompt Using known records, supply IC50 for NC(=O)CC1CCN(c2ccc(S(=O)(=O)N3CCC(Nc4ccc(C(F)(F)F)cn4)CC3)cc2)CC1 [Example 1.167]
### Response 5 to 100 nM

### Prompt # return recorded IC50 for entry O=S(=O)(c1ccc(N2CCN3C[C@H](O)C[C@H]3C2)cc1)N1CCC(Nc2ccc(C(F)(F)F)cn2)CC1 (racemic) [Example 1.178]
### Response 100 to 10000 nM

### Prompt Specify IC50 for O=C1CC2(CCN(c3ccc(S(=O)(=O)N4CCC(Nc5ccc(C(F)(F)F)cn5)CC4)cc3)CC2)C(=O)N1 [Example 1.149] and stop.
### Response 5 to 100 nM

### Prompt Name the recorded IC50 of the item O=C1CC2(CCN(c3ccc(S(=O)(=O)N4CCC(Nc5ccc(C(F)(F)F)cn5)CC4)cc3)CC2)CC(=O)N1 [Example 1.152] in your answer.
### Response < 5 nM

----------
Target System: human CCR6 (Homo sapiens, UniProt P51684)
Sequence (P51684 1-374): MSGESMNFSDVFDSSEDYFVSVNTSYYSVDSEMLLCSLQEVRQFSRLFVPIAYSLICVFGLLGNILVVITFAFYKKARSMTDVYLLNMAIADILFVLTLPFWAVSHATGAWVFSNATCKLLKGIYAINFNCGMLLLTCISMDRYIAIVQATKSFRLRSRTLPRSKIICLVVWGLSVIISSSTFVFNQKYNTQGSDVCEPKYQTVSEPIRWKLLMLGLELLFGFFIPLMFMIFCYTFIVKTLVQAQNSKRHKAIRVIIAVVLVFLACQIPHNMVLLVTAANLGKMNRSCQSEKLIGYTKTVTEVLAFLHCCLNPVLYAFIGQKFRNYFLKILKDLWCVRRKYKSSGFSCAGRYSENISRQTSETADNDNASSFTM
Test: Migration (chemotaxis) assay, hCCR6-transfected Ba/F3 cells toward CCL20
Particulars: hCCR6-transfected Ba/F3 cells in human serum; recombinant human CCL20 10 nM; 37° C. 45 minutes; read-out: Potency (IC50 value in the migration assay)
pIC50: −log10 of the molar value.
Reported pIC50 values follow for various compounds

### Prompt Return pIC50 (reported value) for this compound: NC(=O)C1CN(c2ccc(S(=O)(=O)N3CCC(Nc4ccc(C(F)(F)F)cn4)CC3)cc2)CCO1 (stereo not drawn) [Example 1.202]
### Response 7.00 to 8.30

### Prompt Supply pIC50 value. Item: NC(=O)N1CCC12CN(c1ccc(S(=O)(=O)N3CCC(Nc4ccc(C(F)(F)F)cn4)CC3)cc1)C2 [Example 1.142]
### Response 7.00 to 8.30

### Prompt Given the compound CC(C)(C)OC(=O)N1CC=C(c2ccc(S(=O)(=O)N3CCC(Nc4ccc(C(F)(F)F)cn4)CC3)cc2)CC1 [Example 1.234] , write its reported pIC50.
### Response 7.00 to 8.30

### Prompt Provide measured pIC50 value, entry: NC(=O)NC1CCN(c2ccc(S(=O)(=O)N3CCC(Nc4ccc(C(F)(F)F)cn4)CC3)cc2)CC1 [Example 1.205]
### Response 7.00 to 8.30

### Prompt Please give the documented pIC50 of NC(=O)C1CCN(c2ccc(S(=O)(=O)N3CCC(Nc4ccc(C(F)(F)F)cn4)CC3)cc2)CC1 [Example 1.228]
### Response 7.00 to 8.30

### Prompt Assign pIC50 to the following record: CC(C)(C)OC(=O)N[C@@H]1CCN(c2ccc(S(=O)(=O)N3CCC(Nc4ccc(C(F)(F)F)cn4)CC3)cc2)C1 [Example 1.212]
### Response 5.00 to 7.00

### Prompt Provide measured pIC50 value, entry: O=S(=O)(c1ccc(N2CC3(CC(O)C3)C2)cc1)N1CCC(Nc2ccc(C(F)(F)F)cn2)CC1 [Example 1.187]
### Response 7.00 to 8.30

### Prompt # return recorded pIC50 for input O=C1Cc2ncc(-c3ccc(S(=O)(=O)N4CCC(Nc5ccc(C(F)(F)F)cn5)CC4)cc3)cc2N1 [Example 1.022]
### Response 7.00 to 8.30

### Prompt In one line, give reported pIC50 of the entry N#Cc1n[nH]c2c1CN(c1ccc(S(=O)(=O)N3CCC(Nc4ccc(C(F)(F)F)cn4)CC3)cc1)CC2 [Example 1.207] .
### Response 5.00 to 7.00

----------
Target System: human CCR6 (Homo sapiens)
Test: Migration (chemotaxis) assay, hCCR6-transfected Ba/F3 cells toward CCL20
Particulars: hCCR6-transfected Ba/F3 cells in human serum; recombinant human CCL20 10 nM; 37° C. 45 minutes; read-out: Potency (IC50 value in the migration assay)
Here the recorded IC50 is given for each entry.

// known answers, use as guide
1. O=C1Nc2ccc(-c3ccc(S(=O)(=O)N4CCC(Nc5ccc(C(F)(F)F)cn5)CC4)cc3)cc2C12CC2 [Example 1.051] :: < 5 nM
2. CC(=O)N1CCC2(CC1)C(=O)Nc1ccc(-c3ccc(S(=O)(=O)N4CCC(Nc5ccc(C(F)(F)F)cn5)CC4)cc3)cc12 [Example 1.026] :: 5 to 100 nM
3. NC(=O)C(=O)N1CCN(c2ccc(S(=O)(=O)N3CCC(Nc4ccc(C(F)(F)F)cn4)CC3)cc2)CC1 [Example 1.173] :: 5 to 100 nM
4. O=C1NC(=O)C2(CCCN(c3ccc(S(=O)(=O)N4CCC(Nc5ccc(C(F)(F)F)cn5)CC4)cc3)C2)N1 (stereo not drawn) [Example 1.224] :: 100 to 10000 nM
5. NC(=O)C1CCN(c2ccc(S(=O)(=O)N3CCC(Nc4ccc(C(F)(F)F)cn4)CC3)cc2)C1 (stereo not drawn) [Example 1.195] :: 100 to 10000 nM
6. COc1cc(-c2ccc(S(=O)(=O)N3CCC(Nc4ccc(C(F)(F)F)cn4)CC3)cc2)cc2c1NC(=O)C2 [Example 1.045] :: 5 to 100 nM
7. NC(=O)N1CCC(c2ccc(S(=O)(=O)N3CCC(Nc4ccc(C(F)(F)F)cn4)CC3)cc2)CC1 [Example 1.216] :: 5 to 100 nM
8. N#Cc1n[nH]c2ccc(-c3ccc(S(=O)(=O)[C@H]4CC[C@H](Nc5ccc(C(F)(F)F)cn5)CC4)cc3)cc12 [Example 1.072] :: < 5 nM

### Prompt Give recorded IC50. NC(=O)C1CC2(C1)CN(c1ccc(S(=O)(=O)N3CCC(Nc4ccc(C(F)(F)F)cn4)CC3)cc1)C2 [Example 1.121]
### Response 5 to 100 nM

### Prompt Using known records, supply IC50 for CS(=O)(=O)N1CCN(c2ccc(S(=O)(=O)N3CCC(Nc4ccc(C(F)(F)F)cn4)CC3)cc2)CC1 [Example 1.200]
### Response 5 to 100 nM

### Prompt # return recorded IC50 for entry Nc1n[nH]c2ccc(-c3ccc(S(=O)(=O)N4CCC(Nc5ccc(C(F)(F)F)cn5)CC4)cc3)cc12 [Example 1.112]
### Response < 5 nM

### Prompt Entry O=C1c2cc(-c3ccc(S(=O)(=O)N4CCC(Nc5ccc(C(F)(F)F)cn5)CC4)cc3)ccc2CN1CCO [Example 1.033] needs its IC50 filled in; supply it.
### Response < 5 nM

### Prompt Give the reported IC50 for this compound. O=C1NCc2ncc(-c3ccc(S(=O)(=O)N4CCC(Nc5ccc(C(F)(F)F)cn5)CC4)cc3)cc21 [Example 1.010]
### Response 5 to 100 nM

### Prompt Quote IC50 reported for CC(=O)N1CCN(c2ccc(S(=O)(=O)N3CCC(Nc4ccc(C(F)(F)F)cn4)CC3)cc2)CC1 [Example 1.226] please.
### Response 5 to 100 nM

### Prompt Read the entry N#Cc1c[nH]c2ncc(-c3ccc(S(=O)(=O)N4CCC(Nc5ccc(C(F)(F)F)cn5)CC4)cc3)cc12 [Example 1.088] and write its reported IC50.
### Response < 5 nM

----------
A collection of compounds and their measured IC50
Target System: human CCR6 (Homo sapiens, UniProt P51684)
Test: Migration (chemotaxis) assay, hCCR6-transfected Ba/F3 cells toward CCL20
Particulars: hCCR6-transfected Ba/F3 cells in human serum; recombinant human CCL20 10 nM; 37° C. 45 minutes; read-out: Potency (IC50 value in the migration assay)

Some compounds with recorded IC50:
1. O=S(=O)(c1ccc(-c2ccc3[nH]cnc3c2)cc1)N1CCC(Nc2ccc(C(F)(F)F)cn2)CC1 :: < 5 nM
2. CN1CCN(c2ccc(S(=O)(=O)N3CCC(Nc4ccc(C(F)(F)F)cn4)CC3)cc2)CC1 :: 100 to 10000 nM
3. O=C1Cc2cc(-c3ccc(S(=O)(=O)N4CCC(Nc5ccc(C(F)(F)F)cn5)CC4)cc3)ccc2N1 :: < 5 nM
4. O=c1[nH]c(=O)c2ccc(-c3ccc(S(=O)(=O)N4CCC(Nc5ccc(C(F)(F)F)cn5)CC4)cc3)cc2[nH]1 :: 5 to 100 nM
5. O=c1[nH]c2ccc(-c3ccc(S(=O)(=O)N4CCC(Nc5ccc(C(F)(F)F)cn5)CC4)cc3)cc2n1C1COC1 :: 5 to 100 nM

Could you now consider this next compound?
### Prompt Give a short answer stating reported IC50 for "Nc1cc2cc(-c3ccc(S(=O)(=O)N4CCC(Nc5ccc(C(F)(F)F)cn5)CC4)cc3)cnc2o1" .
### Response < 5 nM
